System: Plutella xylostella
Experiment: Plutella xylostella test on Savoy cabbage; drench application
Format: in vivo
Conditions: soil, 168 h, 0.5 mg of ai/plant, mortality 7 days after infestation, read-out: % Activity (according to Abbott)
pest or weed control at 0.5 mg/plant reference
A number alone suffices; assume %.

compound="Cc1cc(C#N)cc(C(=O)NC(C)(C)C)c1NC(=O)c1cc(Cn2nnc(C(F)(F)F)n2)nn1-c1ncccc1Cl [(I-1-63)]" numeric_readout=100
compound="CNC(=O)c1cc(I)cc(C)c1NC(=O)c1cc(Cn2nnc(C(F)(F)F)n2)nn1-c1ncccc1Cl [(I-1-69)]" numeric_readout=100
compound="Cc1cc(C#N)cc(C(=O)NC(C)(C)C)c1NC(=O)c1cc(Cn2nnc(C3CC3)n2)nn1-c1ncccc1Cl [(I-1-71)]" numeric_readout=90

# evaluate next
The recorded pest or weed control at 0.5 mg/plant for entry CNC(=O)c1cc(F)cc(C)c1NC(=O)c1cc(Cn2nnc(C(F)(F)F)n2)nn1-c1ncccc1Cl [(I-1-61)] equals 100
